Recorded values, source patent CN109096271A.

# system.name: full-length USP7 enzyme [全长USP7酶] (Homo sapiens)
# Sequence (Q93009 whole entry): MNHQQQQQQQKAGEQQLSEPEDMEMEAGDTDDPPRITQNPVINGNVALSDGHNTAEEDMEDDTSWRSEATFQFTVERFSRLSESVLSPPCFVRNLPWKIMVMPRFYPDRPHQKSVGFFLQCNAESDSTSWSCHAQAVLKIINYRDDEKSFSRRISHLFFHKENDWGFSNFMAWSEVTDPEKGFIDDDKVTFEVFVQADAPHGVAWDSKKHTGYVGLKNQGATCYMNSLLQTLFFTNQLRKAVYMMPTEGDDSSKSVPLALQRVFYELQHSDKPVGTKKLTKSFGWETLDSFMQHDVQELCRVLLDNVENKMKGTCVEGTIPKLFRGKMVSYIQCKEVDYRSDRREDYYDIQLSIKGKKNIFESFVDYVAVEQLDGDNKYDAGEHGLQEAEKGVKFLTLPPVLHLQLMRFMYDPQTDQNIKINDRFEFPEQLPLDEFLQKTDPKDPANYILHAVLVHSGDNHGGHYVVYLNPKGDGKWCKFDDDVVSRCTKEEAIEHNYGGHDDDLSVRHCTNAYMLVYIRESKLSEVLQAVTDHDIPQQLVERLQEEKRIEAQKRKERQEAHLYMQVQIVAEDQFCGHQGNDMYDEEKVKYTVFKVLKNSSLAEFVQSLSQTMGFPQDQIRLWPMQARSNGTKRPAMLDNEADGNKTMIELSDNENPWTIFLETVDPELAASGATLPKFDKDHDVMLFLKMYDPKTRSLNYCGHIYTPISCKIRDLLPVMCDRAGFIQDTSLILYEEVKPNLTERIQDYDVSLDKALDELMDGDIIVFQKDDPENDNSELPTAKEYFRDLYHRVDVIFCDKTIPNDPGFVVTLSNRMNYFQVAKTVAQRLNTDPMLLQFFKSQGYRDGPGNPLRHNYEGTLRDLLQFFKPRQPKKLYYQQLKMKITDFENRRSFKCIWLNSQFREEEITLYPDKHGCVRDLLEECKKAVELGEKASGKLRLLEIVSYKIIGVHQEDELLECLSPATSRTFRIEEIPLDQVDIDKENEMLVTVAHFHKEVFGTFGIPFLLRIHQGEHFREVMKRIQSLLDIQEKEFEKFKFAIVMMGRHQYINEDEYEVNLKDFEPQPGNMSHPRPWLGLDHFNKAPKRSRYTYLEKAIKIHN
Please assign criterion not met whenever IC50 is at or above 5 µM, and criterion met whenever it is below.

compound: CC1CS(=O)(=O)c2cc(NC(=O)c3cc([N+](=O)[O-])c(Sc4c(Cl)cncc4Cl)[nH]3)ccc21 (centres unmarked)
label: criterion not met
//
compound: CN1CCN(CC(=O)Nc2ccc(NC(=O)c3cc([N+](=O)[O-])c(Sc4c(Cl)cncc4Cl)s3)cc2)CC1
label: criterion not met
//
compound: CN(C)CCN1CCN(C(=O)c2ccc(NC(=O)c3cc([N+](=O)[O-])c(Sc4c(Cl)cncc4Cl)s3)cc2)CC1
label: criterion met
//
compound: O=C(NCCc1ccc2c(c1)OCO2)c1cc([N+](=O)[O-])c(Sc2c(Cl)cncc2Cl)s1
label: criterion not met
//
compound: CN1CCCN(c2ccc(NC(=O)c3cc([N+](=O)[O-])c(Sc4c(Cl)cncc4Cl)s3)cc2)CC1
label: criterion not met
//
compound: CS(=O)(=O)N1CCN(c2ccc(NC(=O)c3cc([N+](=O)[O-])c(Sc4c(Cl)cncc4Cl)s3)cc2)CC1
label: criterion not met
//
compound: CN1CCC(Oc2ccc(NC(=O)c3cc([N+](=O)[O-])c(Sc4c(Cl)cncc4Cl)s3)cc2)C1 (centres unmarked)
label: criterion met
//
compound: O=C(NCCN1CCOCC1)c1cc([N+](=O)[O-])c(Sc2c(Cl)cncc2Cl)s1
label: criterion met

====

Observed pIC50 values for full-length USP7 enzyme [全长USP7酶] (Homo sapiens, UniProt Q93009) are listed in what follows.
pIC50: −log10 of the molar value.

compound: CN1CCC(Oc2ccc(NC(=O)c3cc([N+](=O)[O-])c(Sc4c(Cl)cncc4Cl)s3)cc2)CC1 [I-5]
modifier: =
pIC50: 5.55
--
compound: CN1CCCC(Oc2ccc(NC(=O)c3cc([N+](=O)[O-])c(Sc4c(Cl)cncc4Cl)s3)cc2)CC1 (centres unmarked) [I-6]
modifier: =
pIC50: 5.34
--
compound: CN1CCN(CC(=O)NCc2ccc(NC(=O)c3cc([N+](=O)[O-])c(Sc4c(Cl)cncc4Cl)s3)cc2)CC1 [I-14]
modifier: =
pIC50: 5.44
--
compound: CN(C)CCN1CCN(C(=O)c2cc([N+](=O)[O-])c(Sc3c(Cl)cncc3Cl)s2)CC1 [I-17]
modifier: =
pIC50: 5.18
--
compound: CN1CCN(C(=O)c2ccc(NC(=O)c3cc([N+](=O)[O-])c(Sc4c(Cl)cncc4Cl)s3)cc2)CC1 [I-10]
modifier: =
pIC50: 5.53
--
compound: CC1CS(=O)(=O)c2cc(NC(=O)c3cc([N+](=O)[O-])c(Sc4c(Cl)cncc4Cl)n3C)ccc21 (centres unmarked) [I-3]
modifier: <
pIC50: 4.30
--
compound: CC1CS(=O)(=O)c2cc(NC(=O)c3cc([N+](=O)[O-])c(Sc4c(Cl)cncc4Cl)o3)ccc21 (centres unmarked) [I-1]
modifier: <
pIC50: 4.30
--
compound: O=C(NCCN1CCOCC1)c1ccc(NC(=O)c2cc([N+](=O)[O-])c(Sc3c(Cl)cncc3Cl)s2)cc1 [I-12]
modifier: =
pIC50: 5.93
